system: Liver microsomes (Mus musculus); assay: Clearance in mouse liver microsomes by LC-MS/MS analysis
assay-endpoint: CLH (mL/min/kg)
Could you give me the number in mL/min/kg? Just the number is fine.

I am curious: what CLH value has been reported for `C=CC(=O)NCC(=O)Nc1cccc(Nc2ncc(NC(=O)c3cc(NC(=O)c4cccc(C(F)(F)F)c4)ccc3C)cn2)c1` ?
49.8

----------
assay: Half life in mouse liver microsomes by LC-MS/MS analysis; format: ADME
Give measured half-life for each item. Keep answers brief.
Numbers only here, please. The scale is min.

Entry `C=CC(=O)NCC(=O)Nc1cccc(Nc2ncc(NC(=O)c3cc(NC(=O)c4cccc(C(F)(F)F)c4)ccc3C)cn2)c1` has what half-life?
35.4

Fill blank: measured half-life of the compound `C=CC(=O)Nc1cccc(Nc2ncc(NC(=O)c3cc(NC(=O)c4cccc(C(F)(F)F)c4)ccc3C)cn2)c1` is ____.
38.4

----------
Assign pIC50 to each entry below.
target: UniProt Q06187; assay: Inhibition of Btk (unknown origin) after 1 hr by HTRF assay
Sequence (Q06187 whole entry): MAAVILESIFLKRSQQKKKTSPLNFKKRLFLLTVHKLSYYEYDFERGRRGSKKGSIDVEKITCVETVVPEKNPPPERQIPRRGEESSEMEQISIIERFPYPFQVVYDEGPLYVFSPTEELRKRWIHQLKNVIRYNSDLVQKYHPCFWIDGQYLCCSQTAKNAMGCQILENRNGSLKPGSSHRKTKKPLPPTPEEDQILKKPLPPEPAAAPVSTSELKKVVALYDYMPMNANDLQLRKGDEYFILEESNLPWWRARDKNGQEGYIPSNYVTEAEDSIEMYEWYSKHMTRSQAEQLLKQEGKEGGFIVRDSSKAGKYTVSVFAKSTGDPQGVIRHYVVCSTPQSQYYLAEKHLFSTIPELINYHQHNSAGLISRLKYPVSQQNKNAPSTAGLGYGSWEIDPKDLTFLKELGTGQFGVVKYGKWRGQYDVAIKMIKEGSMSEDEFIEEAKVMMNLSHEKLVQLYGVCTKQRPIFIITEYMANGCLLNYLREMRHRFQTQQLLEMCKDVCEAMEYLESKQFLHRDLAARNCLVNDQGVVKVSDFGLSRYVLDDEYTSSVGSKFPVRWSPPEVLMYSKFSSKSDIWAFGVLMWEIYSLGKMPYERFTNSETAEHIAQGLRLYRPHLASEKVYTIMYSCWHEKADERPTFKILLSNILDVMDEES
Schema: pIC50 number; meaning minus log10 of the concentration expressed in molar units.

Which value of pIC50 has been reported for `CCC(=O)Nc1cccc(Nc2ncc(NC(=O)c3cc(NC(=O)c4cccc(C(F)(F)F)c4)ccc3C)cn2)c1` in the records?
7.82

Tell me the measured pIC50 of `Nc1cccc(Nc2ncc(NC(=O)c3cc(NC(=O)c4cccc(C(F)(F)F)c4)ccc3F)cn2)c1` , please.
7.33

Could you tell me which pIC50 is on file for `CCC(=O)Nc1ccc(C)c(C(=O)Nc2cnc(Nc3cccc(N)c3)nc2)c1` ?
5.07

----------
molecular target: Tyrosine-protein kinase ITK/TSK (Homo sapiens, UniProt Q08881)
Sequence (Q08881 whole entry): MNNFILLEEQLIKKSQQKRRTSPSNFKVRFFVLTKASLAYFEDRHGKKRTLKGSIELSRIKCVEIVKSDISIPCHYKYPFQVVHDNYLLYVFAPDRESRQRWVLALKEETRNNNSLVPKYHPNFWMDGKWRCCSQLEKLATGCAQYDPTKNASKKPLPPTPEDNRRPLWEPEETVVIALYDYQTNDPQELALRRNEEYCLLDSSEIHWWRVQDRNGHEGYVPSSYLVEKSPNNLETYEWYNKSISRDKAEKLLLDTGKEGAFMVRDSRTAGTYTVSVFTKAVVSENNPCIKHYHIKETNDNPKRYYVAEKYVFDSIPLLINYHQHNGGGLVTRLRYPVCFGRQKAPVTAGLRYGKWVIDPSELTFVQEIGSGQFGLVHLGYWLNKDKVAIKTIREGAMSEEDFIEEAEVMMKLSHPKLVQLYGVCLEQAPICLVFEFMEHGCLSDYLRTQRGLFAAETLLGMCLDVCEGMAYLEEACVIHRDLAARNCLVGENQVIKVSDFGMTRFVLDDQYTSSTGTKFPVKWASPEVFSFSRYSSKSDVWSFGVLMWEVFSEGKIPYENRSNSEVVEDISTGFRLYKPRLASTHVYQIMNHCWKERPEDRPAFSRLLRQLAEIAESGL
assay-endpoint: IC50

What value of IC50 has been recorded for this entry: `C=CC(=O)Nc1cccc(Nc2ncc(NC(=O)c3cc(NC(=O)c4cccc(C(F)(F)F)c4)ccc3C)cn2)c1`
> 30 µM

----------
target: Tyrosine-protein kinase Blk (Homo sapiens)
Sequence (P51451 whole entry): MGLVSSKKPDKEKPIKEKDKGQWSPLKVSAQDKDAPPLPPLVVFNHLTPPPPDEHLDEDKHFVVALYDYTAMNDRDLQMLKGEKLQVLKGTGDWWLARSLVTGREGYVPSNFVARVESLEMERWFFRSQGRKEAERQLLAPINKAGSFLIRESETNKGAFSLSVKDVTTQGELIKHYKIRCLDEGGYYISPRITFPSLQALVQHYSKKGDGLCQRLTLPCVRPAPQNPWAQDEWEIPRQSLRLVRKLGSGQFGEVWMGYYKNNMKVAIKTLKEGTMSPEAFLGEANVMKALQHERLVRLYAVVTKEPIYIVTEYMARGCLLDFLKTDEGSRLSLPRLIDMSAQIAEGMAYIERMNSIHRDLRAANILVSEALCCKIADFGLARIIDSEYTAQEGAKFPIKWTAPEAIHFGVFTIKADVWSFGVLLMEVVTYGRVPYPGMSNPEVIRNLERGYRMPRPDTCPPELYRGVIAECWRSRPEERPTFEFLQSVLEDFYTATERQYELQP
assay-endpoint: IC50 (nM)
Note: unit nM is implicit; provide only the numeric part.

Fill in: IC50 of `C=CC(=O)Nc1cccc(Nc2ncc(NC(=O)c3cc(NC(=O)c4cccc(C(F)(F)F)c4)ccc3C)cn2)c1` is ___
2.7

Given the entry `C=CC(=O)NCC(=O)Nc1cccc(Nc2ncc(NC(=O)c3cc(NC(=O)c4cccc(C(F)(F)F)c4)ccc3C)cn2)c1` , report its measured IC50.
4.2

----------
Target: Cytoplasmic tyrosine-protein kinase BMX (Homo sapiens)
Sequence (P51813 whole entry): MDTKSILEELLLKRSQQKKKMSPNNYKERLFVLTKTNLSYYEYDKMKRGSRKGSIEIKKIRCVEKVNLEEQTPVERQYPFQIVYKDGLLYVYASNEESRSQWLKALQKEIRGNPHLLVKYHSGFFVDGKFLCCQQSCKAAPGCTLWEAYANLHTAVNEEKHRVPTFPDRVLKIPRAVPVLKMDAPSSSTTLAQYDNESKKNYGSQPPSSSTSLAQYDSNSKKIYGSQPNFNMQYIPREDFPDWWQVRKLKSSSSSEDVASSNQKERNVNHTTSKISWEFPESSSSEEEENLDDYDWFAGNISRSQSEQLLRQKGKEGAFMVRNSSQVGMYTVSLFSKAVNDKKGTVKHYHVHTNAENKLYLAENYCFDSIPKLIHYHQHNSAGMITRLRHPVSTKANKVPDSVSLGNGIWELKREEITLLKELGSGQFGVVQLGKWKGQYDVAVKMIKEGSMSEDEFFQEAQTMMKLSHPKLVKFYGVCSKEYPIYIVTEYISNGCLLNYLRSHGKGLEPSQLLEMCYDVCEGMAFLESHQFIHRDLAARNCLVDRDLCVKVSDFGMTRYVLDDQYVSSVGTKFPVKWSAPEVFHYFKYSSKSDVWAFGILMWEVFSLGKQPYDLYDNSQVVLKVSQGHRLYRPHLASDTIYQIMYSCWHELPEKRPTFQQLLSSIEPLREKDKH
Please go through the items and note down their pIC50.
Kindly note that pIC50 refers to -log10 of the concentration in mol/L and answer with the value alone.

For the compound `C=CC(=O)NCC(=O)Nc1cccc(Nc2ncc(NC(=O)c3cc(NC(=O)c4cccc(C(F)(F)F)c4)ccc3C)cn2)c1` , what pIC50 is on record?
9.15

Would you mind telling me what pIC50 value was observed for `C=CC(=O)Nc1cccc(Nc2ncc(NC(=O)c3cc(NC(=O)c4cccc(C(F)(F)F)c4)ccc3C)cn2)c1` ?
8.72
